Please respond with reported z-score for every item in the list.
# assayedTarget: Metabotropic glutamate receptor 8 (Rattus norvegicus)
# procedureDetails: mGluR8 Gi/Go-coupled signaling modulation – cell-based, rat, thallium flux, HTS, primary screen (AID 488969)
# measurementSetup: HEK293 rat mGluR8, GIRK thallium flux, FluoZin2; at 10 µM; stronger effect = higher value; submaximal glutamate (EC20) added with thallium
The full ranking holds about 110,000 compounds; the median of “z-score” is about -0.1, and the highest 2% start at about 2. For the sample, the highest values were picked, then their nearest neighbours and some compounds at random.
Give bare numbers.

| compound | assayedTarget | z-score |
| --- | --- | --- |
| NC(=O)COC(=O)c1cc(S(=O)(=O)N2CCOCC2)ccc1N1CCCCC1 | Metabotropic glutamate receptor 8 (Rattus norvegicus) | -0.0501 |

Give one value of z-score per listed compound.
1. CCNC(=S)NNC(=O)c1ccc(OC(F)F)cc1
2. O=C(N1CCOCC1)N1CCN(C(=O)N(c2ccccc2)c2ccccc2)CC1
3. O=C(O/N=C\c1ccc(N2CCCCC2)c([N+](=O)[O-])c1)c1cccc(Cl)c1
4. CN(C)S(=O)(=O)c1cccc(NC(=S)Nc2ccc(Cl)cc2Cl)c1
5. O=Cc1ccc(OC(=O)c2cc(Cl)nc3ccccc23)cc1
6. CCCN(CC1CC1)C(=O)COC(=O)c1[nH]c(C)c(C(=O)OCC)c1C
7. CCc1cc(=O)oc2cc3oc(C)c(C)c3cc12
8. c1ccc2sc(C3CCN(Cc4nnnn4Cc4ccc5c(c4)OCO5)CC3)nc2c1

a:
[-0.194, -0.217, -0.494, 7.58, -0.764, -0.372, -0.296, 0.227]

---

# assayedTarget: Metabotropic glutamate receptor 8 (Rattus norvegicus) (UniProt P70579)
# Sequence (P70579 whole entry, looked up): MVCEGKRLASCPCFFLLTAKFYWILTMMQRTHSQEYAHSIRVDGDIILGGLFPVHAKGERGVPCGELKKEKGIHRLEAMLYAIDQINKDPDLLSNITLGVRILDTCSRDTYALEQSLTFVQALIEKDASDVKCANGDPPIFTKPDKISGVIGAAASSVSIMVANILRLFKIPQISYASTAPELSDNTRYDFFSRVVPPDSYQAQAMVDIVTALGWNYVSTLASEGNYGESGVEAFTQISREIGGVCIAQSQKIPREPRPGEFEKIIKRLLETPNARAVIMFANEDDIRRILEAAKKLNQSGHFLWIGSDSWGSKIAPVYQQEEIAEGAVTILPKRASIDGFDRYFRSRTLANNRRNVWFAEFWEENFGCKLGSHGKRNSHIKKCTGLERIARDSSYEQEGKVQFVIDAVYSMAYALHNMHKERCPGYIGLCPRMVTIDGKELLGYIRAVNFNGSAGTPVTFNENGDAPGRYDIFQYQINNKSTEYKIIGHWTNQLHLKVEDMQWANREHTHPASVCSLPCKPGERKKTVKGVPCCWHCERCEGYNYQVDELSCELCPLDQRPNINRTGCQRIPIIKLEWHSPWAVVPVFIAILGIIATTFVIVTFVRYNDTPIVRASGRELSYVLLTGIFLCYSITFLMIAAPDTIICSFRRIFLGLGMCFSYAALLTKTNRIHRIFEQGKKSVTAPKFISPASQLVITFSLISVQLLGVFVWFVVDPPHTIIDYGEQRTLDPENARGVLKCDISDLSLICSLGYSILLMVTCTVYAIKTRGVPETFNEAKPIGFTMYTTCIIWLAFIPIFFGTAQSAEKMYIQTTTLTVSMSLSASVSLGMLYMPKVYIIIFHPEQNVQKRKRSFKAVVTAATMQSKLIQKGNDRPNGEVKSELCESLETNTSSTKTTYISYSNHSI
# procedureDetails: mGluR8 Gi/Go-coupled signaling modulation – cell-based, rat, thallium flux, HTS, primary screen (AID 488969)
# measurementSetup: HEK293 rat mGluR8, GIRK (G protein-gated inwardly rectifying potassium channel) thallium flux, FluoZin2; at 10 µM; stronger effect = higher value; submaximal glutamate (EC20) added with thallium
Whole data set: some 110,000 compounds, median “z-score” near -0.1, cut for the highest 2% near 2. The sample as a whole holds a higher share of the highest values than the screen did.
quantityName: z-score
One number for each entry.

Example molecules with recorded z-score:
| molecule | observedValue |
| --- | --- |
| CC1CCC(C(C)C)C(OC(=O)CSc2nc(N)cc(=O)[nH]2)C1 (stereo not drawn) | -0.124 |
| CCC1(CC)C(=O)N(C)C(=O)NC1=NCc1ccccc1 | 0.146 |

List reported z-score for each of these molecules:
1. CC(C)(C)c1ccc(OCC(=O)NNC(=O)CCc2ccccc2)cc1
2. O=C(CCc1ccccc1)NNC(=S)NC(=O)c1ccccc1

a:
0.639
1.13

Below is a list of molecules. For each, state its recorded z-score.
1. CC(C)Cn1cnc2c(c(-c3ccccc3)c(-c3ccccc3)n2Cc2ccco2)c1=N
2. O=C(CCc1ccccc1)NNC(=S)NC(=O)c1ccc(Cl)cc1
3. Cc1ccc2cc3cc(C(=O)N4CCN(Cc5ccccc5)CC4)sc3nc2c1

a:
[3.58, 3.03, 0.586]

Hey, quick one: what's z-score for each of these?
1. CC(=O)Nc1ccc(C(=O)NNC(=O)CCc2ccccc2)cc1
2. O=c1[nH]cnc2cc(Cl)ccc12
3. CCn1c(SCC(=O)NC2CCCCC2C)nnc1-c1ccc(OC)cc1 (stereo not drawn)
4. CC(C)(Oc1ccc(Cl)cc1)C(=O)N1CCN(c2ccccn2)CC1

a:
1. -0.185
2. -0.0535
3. 0.074
4. -0.0555

Hello, I would appreciate it if you could give z-score for each entry below.
1. OCCNc1ncnc2c1c(-c1ccccc1)c(-c1ccccc1)n2Cc1ccco1
2. CCOc1ccc(Br)cc1/C(C)=N\NC1=NCCN1

a:
1. -0.463
2. 3.75
